Parameter: IC50. Scope: all listed entries.
Tested on: Human immunodeficiency virus 2
Experiment: Antiviral activity against HIV 2 subtype B clinical isolate expressing 14Y-19P-61N-64V-71I-90M-95I protease gene sequence from HIV2 infected patient plasma and PBMC obtained at T2 during compound treatment measured after 3 months
Type: functional, organism-based
Details: Human immunodeficiency virus 2, subtype B\r\n
Return type: number; implicit unit µM.

CC(C)CN(C[C@@H](O)[C@H](Cc1ccccc1)NC(=O)O[C@H]1CO[C@H]2OCC[C@H]21)S(=O)(=O)c1ccc(N)cc1 [DARUNAVIR] ... 0.7
CCC[C@@]1(CCc2ccccc2)CC(O)=C([C@H](CC)c2cccc(NS(=O)(=O)c3ccc(C(F)(F)F)cn3)c2)C(=O)O1 [TIPRANAVIR] ... 4
CC(C)(C)NC(=O)[C@@H]1CN(Cc2cccnc2)CCN1C[C@@H](O)C[C@@H](Cc1ccccc1)C(=O)N[C@H]1c2ccccc2C[C@H]1O [INDINAVIR] ... 12
COC(=O)N[C@H](C(=O)N[C@@H](Cc1ccccc1)[C@@H](O)CN(Cc1ccc(-c2ccccn2)cc1)NC(=O)[C@@H](NC(=O)OC)C(C)(C)C)C(C)(C)C [ATAZANAVIR] ... 0.2
Cc1cccc(C)c1OCC(=O)N[C@@H](Cc1ccccc1)[C@@H](O)C[C@H](Cc1ccccc1)NC(=O)[C@H](C(C)C)N1CCCNC1=O [LOPINAVIR] ... 0.1

// query Would you mind telling me what IC50 value was observed for CC(C)CN(C[C@@H](O)[C@H](Cc1ccccc1)NC(=O)O[C@H]1CCOC1)S(=O)(=O)c1ccc(N)cc1 [AMPRENAVIR] ?
// result 17

// query What about CC(C)(C)NC(=O)[C@@H]1C[C@@H]2CCCC[C@@H]2CN1C[C@@H](O)[C@H](Cc1ccccc1)NC(=O)[C@H](CC(N)=O)NC(=O)c1ccc2ccccc2n1 [SAQUINAVIR] ?
// result 6.7
